Record form. Attribute: IC50. Fill in for each entry.
- Tested on: 885512-296-R-J2-PDC complex spheroid growth, % test/control
- experiment: Anticancer human tumor 885512-296-R-J2-PDC patient-derived breast carcinoma cell line growth inhibition [AhR]
- testSettings: curve of first compound; second compound 1 µM
Give the number; nM is assumed, so skip it.

Asked: # value lookup — system 885512-296-R-J2-PDC complex spheroid growth, % test/control, readout IC50, item CC(C)CC(NC(=O)C(Cc1ccccc1)NC(=O)c1cnccn1)B(O)O (stereo not drawn) + Cc1cncc(-c2nc(NCCc3c[nH]c4ccccc34)c3ncn(C(C)C)c3n2)c1
Given back: 5.6

Asked: # value lookup — system 885512-296-R-J2-PDC complex spheroid growth, % test/control, readout IC50, item CC1COCCN1c1cc(-c2ccnn2C)c2ccnc(-c3ccn[nH]3)c2n1 (stereo not drawn) + CC(CO)NC(=O)c1cc(-c2ccc(Cl)cc2)nn(-c2cnn(C)c2)c1=O
Given back: 35.1

* * *

- Tested on: 885512-296-R-J2-PDC complex spheroid growth, % test/control
- experiment: Anticancer human tumor 885512-296-R-J2-PDC cell line growth inhibition [AhR];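 note: spheroids exposed to compounds for seven days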
- testSettings: second compound 10 µM; first compound 0.03 µM; stronger effect = lower value
parameterMeasured: viability, T/C (%)
Give the number; % is assumed, so skip it.

Asked: Need viability, T/C of CC(C)CC(NC(=O)C(Cc1ccccc1)NC(=O)c1cnccn1)B(O)O (stereo not drawn) + CC(CO)NC(=O)c1cc(-c2ccc(Cl)cc2)nn(-c2cnn(C)c2)c1=O , thanks.
Given back: 0.68

Asked: Need viability, T/C of CC(C)CC(NC(=O)C(Cc1ccccc1)NC(=O)c1cnccn1)B(O)O (stereo not drawn) + Cc1ccccc1N=Nc1ccc(NC(=O)c2ccnn2C)c(C)c1 , thanks.
Given back: 1.46

Asked: Need viability, T/C of CCc1c2c(nc3ccc(O)cc13)-c1cc3c(c(=O)n1C2)COC(=O)[C@]3(O)CC + CC(CO)NC(=O)c1cc(-c2ccc(Cl)cc2)nn(-c2cnn(C)c2)c1=O , thanks.
Given back: 4.99

* * *

- Test system: 885512-296-R-J2-PDC complex spheroid growth, % test/control
- experiment: Anticancer human tumor 885512-296-R-J2-PDC cell line growth inhibition [AhR];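 note: spheroids exposed to compounds for seven days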
- testSettings: curve of first compound; second compound 3.16 µM
- From the text: Multicellular complex tumor spheroid response to aryl hydrocarbon receptor antagonists in combination with a variety of drugs and investigational agents in selected tumor cell lines […] Compounds. […] If the clinical Cmax for an agent had not been determined, the highest concentration tested was 10 microM (Table 1). […]
pIC50: −log10 of the molar value.
Mark fulfilled for reported pIC50 of 6 or greater; mark not fulfilled for anything smaller.

Asked: Textbook exercise: given the entry COc1cc(C2c3cc4c(cc3C(OC3OC5COC(C)OC5C(O)C3O)C3COC(=O)C23)OCO4)cc(OC)c1O (stereo not drawn) + Cc1ccccc1N=Nc1ccc(NC(=O)c2ccnn2C)c(C)c1 , state whether its pIC50 is greater than or equal to 6.
Given back: fulfilled

Asked: Textbook exercise: given the entry COc1ccc([C@@H](O)c2cc(-c3ncnc4cc(N5CCOCC5)ccc34)c(F)cc2Cl)nn1 + Cc1ccccc1N=Nc1ccc(NC(=O)c2ccnn2C)c(C)c1 , state whether its pIC50 is greater than or equal to 6.
Given back: not fulfilled

Asked: Textbook exercise: given the entry Nc1ncn(C2CC(O)C(CO)O2)c(=O)n1 (stereo not drawn) + CC(CO)NC(=O)c1cc(-c2ccc(Cl)cc2)nn(-c2cnn(C)c2)c1=O , state whether its pIC50 is greater than or equal to 6.
Given back: not fulfilled

Asked: Textbook exercise: given the entry CC1COCCN1c1cc(-c2ccnn2C)c2ccnc(-c3ccn[nH]3)c2n1 (stereo not drawn) + Cc1cncc(-c2nc(NCCc3c[nH]c4ccccc34)c3ncn(C(C)C)c3n2)c1 , state whether its pIC50 is greater than or equal to 6.
Given back: fulfilled

Asked: Textbook exercise: given the entry COc1ccc([C@@H](O)c2cc(-c3ncnc4cc(N5CCOCC5)ccc34)c(F)cc2Cl)nn1 + CC(CO)NC(=O)c1cc(-c2ccc(Cl)cc2)nn(-c2cnn(C)c2)c1=O , state whether its pIC50 is greater than or equal to 6.
Given back: not fulfilled

Asked: Textbook exercise: given the entry CC(C)c1c(-c2ccccc2)nc2c(C#N)c[nH]n2c1=O + Cc1ccccc1N=Nc1ccc(NC(=O)c2ccnn2C)c(C)c1 , state whether its pIC50 is greater than or equal to 6.
Given back: not fulfilled

Asked: Textbook exercise: given the entry CC(C)c1c(-c2ccccc2)nc2c(C#N)c[nH]n2c1=O + CC(CO)NC(=O)c1cc(-c2ccc(Cl)cc2)nn(-c2cnn(C)c2)c1=O , state whether its pIC50 is greater than or equal to 6.
Given back: not fulfilled

Asked: Textbook exercise: given the entry CC1COCCN1c1cc(-c2ccnn2C)c2ccnc(-c3ccn[nH]3)c2n1 (stereo not drawn) + CC(CO)NC(=O)c1cc(-c2ccc(Cl)cc2)nn(-c2cnn(C)c2)c1=O , state whether its pIC50 is greater than or equal to 6.
Given back: fulfilled

Asked: Textbook exercise: given the entry CC1COCCN1c1cc(C2(S(C)(=N)=O)CC2)nc(-c2ccnc3[nH]ccc23)n1 (stereo not drawn) + Cc1ccccc1N=Nc1ccc(NC(=O)c2ccnn2C)c(C)c1 , state whether its pIC50 is greater than or equal to 6.
Given back: not fulfilled

Asked: Textbook exercise: given the entry Nc1ccccc1NC(=O)c1ccc(CNC(=O)OCc2cccnc2)cc1 + CC(CO)NC(=O)c1cc(-c2ccc(Cl)cc2)nn(-c2cnn(C)c2)c1=O , state whether its pIC50 is greater than or equal to 6.
Given back: fulfilled
